- system-tested: human MOP receptor (Homo sapiens, UniProt P35372)
- Sequence (P35372 whole entry): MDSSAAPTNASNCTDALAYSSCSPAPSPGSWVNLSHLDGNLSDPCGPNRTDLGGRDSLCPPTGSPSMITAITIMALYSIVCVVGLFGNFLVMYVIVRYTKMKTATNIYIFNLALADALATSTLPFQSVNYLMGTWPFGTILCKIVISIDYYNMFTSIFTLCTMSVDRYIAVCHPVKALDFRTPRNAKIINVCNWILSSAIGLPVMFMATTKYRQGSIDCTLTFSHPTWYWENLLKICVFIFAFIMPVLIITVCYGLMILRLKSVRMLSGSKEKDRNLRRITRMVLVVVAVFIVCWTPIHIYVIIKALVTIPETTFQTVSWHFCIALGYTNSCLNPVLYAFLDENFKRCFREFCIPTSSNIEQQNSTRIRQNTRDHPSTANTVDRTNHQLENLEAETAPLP
- experiment-notes: biochemical
- Format: biochemical
- Set-up: expressed in transfected cells; host or cells: CHO (CHOhMOP) cell membranes
result-type: EC50

{"columns": ["compound", "system-tested", "observed-result"],
 "data": [
  ["Oc1ccc2c3c1O[C@H]1[C@@H](O)C=C[C@H]4[C@@H](C2)N(CCc2ccccc2)CC[C@@]341 [Compound 1, N-phenethylnormorphine]", "human MOP receptor (Homo sapiens, UniProt P35372)", "0.0103 µM"]
]}

====

Entries with reported Ki on KOP receptor (Cavia porcellus)
Sequence (P41144 whole entry): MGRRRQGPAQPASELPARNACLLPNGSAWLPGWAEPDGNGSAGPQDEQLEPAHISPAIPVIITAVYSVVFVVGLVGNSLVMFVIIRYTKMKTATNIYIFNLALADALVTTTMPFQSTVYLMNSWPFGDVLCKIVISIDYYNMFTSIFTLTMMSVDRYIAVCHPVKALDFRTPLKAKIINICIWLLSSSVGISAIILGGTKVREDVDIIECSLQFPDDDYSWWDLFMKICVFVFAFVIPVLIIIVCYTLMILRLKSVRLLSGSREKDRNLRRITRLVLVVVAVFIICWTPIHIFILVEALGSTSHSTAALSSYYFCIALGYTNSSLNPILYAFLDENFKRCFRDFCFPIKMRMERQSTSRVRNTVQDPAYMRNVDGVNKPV
result-type: Ki (nM)

{"columns": ["compound", "observed-result"],
 "data": [
  ["Oc1ccc2c3c1O[C@H]1[C@@H](O)C=C[C@H]4[C@@H](C2)N(CCc2ccccc2)CC[C@@]341", 107],
  ["Oc1ccc2c3c1O[C@H]1[C@@H](O)C=C[C@H]4[C@@H](C2)N(CCCc2ccccc2)CC[C@@]341", 565],
  ["Oc1ccc2c3c1O[C@H]1[C@@H](O)C=C[C@@]4(O)[C@@H](C2)N(CCc2ccccc2)CC[C@]314 [Compound 4, N-Phenethyl-14-hydroxynormorphine]", 513]
]}

====

- system-tested: DOP receptor (Rattus norvegicus)
- Construct: Membranes were prepared from Sprague-Dawley rat or guinea pig brains
- Sequence (P33533 whole entry): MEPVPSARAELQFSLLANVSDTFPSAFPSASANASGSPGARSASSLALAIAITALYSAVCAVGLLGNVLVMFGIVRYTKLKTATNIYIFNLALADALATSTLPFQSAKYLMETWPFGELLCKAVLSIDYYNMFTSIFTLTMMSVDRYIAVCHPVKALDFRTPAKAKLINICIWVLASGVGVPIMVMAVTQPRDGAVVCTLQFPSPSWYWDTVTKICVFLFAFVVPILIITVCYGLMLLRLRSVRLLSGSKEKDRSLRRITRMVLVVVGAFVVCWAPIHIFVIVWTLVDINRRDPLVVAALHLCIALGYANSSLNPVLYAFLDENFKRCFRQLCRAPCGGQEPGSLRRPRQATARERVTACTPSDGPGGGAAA
- experiment-notes: Radioligand binding assay, [3H][Ile5,6]deltorphin II, rat brain membranes

{"columns": ["compound", "Ki (nM)"],
 "data": [
  ["Oc1ccc2c3c1O[C@H]1[C@@H](O)C=C[C@H]4[C@@H](C2)N(CCc2ccccc2)CC[C@@]341", 37],
  ["Oc1ccc2c3c1O[C@H]1[C@@H](O)C=C[C@@]4(O)[C@@H](C2)N(CCc2ccccc2)CC[C@]314 [Compound 4, N-Phenethyl-14-hydroxynormorphine]", 163],
  ["Oc1ccc2c3c1O[C@H]1[C@@H](O)C=C[C@H]4[C@@H](C2)N(CCCc2ccccc2)CC[C@@]341", 869]
]}

====

- system-tested: UniProt P41143
- Sequence (P41143 whole entry): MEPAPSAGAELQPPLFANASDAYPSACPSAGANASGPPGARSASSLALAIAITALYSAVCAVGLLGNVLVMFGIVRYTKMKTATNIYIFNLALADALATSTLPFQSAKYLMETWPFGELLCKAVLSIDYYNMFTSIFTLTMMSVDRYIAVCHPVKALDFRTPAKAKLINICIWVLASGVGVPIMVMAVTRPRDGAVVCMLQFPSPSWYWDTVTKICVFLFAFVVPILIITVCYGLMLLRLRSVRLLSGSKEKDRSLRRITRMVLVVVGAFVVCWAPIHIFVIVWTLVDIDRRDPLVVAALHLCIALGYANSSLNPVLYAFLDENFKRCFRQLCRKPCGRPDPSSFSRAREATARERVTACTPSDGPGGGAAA
- experiment-notes: biochemical
result-type: EC50

{"columns": ["test-smiles", "observed-result"],
 "data": [
  ["Oc1ccc2c3c1O[C@H]1[C@@H](O)C=C[C@H]4[C@@H](C2)N(CCc2ccccc2)CC[C@@]341", "712 nM"]
]}

====

- system-tested: MOP receptor (Rattus norvegicus, UniProt P33535)
- Sequence (P33535 whole entry): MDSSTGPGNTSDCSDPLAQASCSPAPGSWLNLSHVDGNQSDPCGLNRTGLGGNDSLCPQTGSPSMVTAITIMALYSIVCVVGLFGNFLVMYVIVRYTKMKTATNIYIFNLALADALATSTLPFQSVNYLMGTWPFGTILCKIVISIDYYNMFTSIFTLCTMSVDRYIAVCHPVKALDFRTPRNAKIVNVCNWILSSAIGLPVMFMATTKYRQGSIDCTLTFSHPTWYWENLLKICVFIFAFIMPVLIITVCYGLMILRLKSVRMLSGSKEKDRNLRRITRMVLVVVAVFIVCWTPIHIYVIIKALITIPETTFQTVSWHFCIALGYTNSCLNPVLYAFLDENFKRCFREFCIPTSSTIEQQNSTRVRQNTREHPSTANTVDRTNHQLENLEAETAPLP

{"columns": ["compound", "Ki / nM"],
 "data": [
  ["Oc1ccc2c3c1O[C@H]1[C@@H](O)C=C[C@@]4(O)[C@@H](C2)N(CCc2ccccc2)CC[C@]314 [Compound 4, N-Phenethyl-14-hydroxynormorphine]", 4.6],
  ["Oc1ccc2c3c1O[C@H]1[C@@H](O)C=C[C@H]4[C@@H](C2)N(CCc2ccccc2)CC[C@@]341", 0.93],
  ["Oc1ccc2c3c1O[C@H]1[C@@H](O)C=C[C@H]4[C@@H](C2)N(CCCc2ccccc2)CC[C@@]341", 79.5]
]}
